- Tested on: Hut78 T-cell Leukemia cell
- Protocol details: CCK-8 proliferation inhibition, Hut78
- Format: cell-based
- Condition: Homo sapiens, HuT78, 10 μM, read-out: Hut-78 (inhibition %)
Property: inhibition at 10 µM; scope: individual compounds
Answer with a number only, understood to be in %.

> print(dat)
                                test.smiles               target.system  recorded.number
1  Nc1ncccc1NC(=O)c1ccc(CNC(=O)/C=C/c2ccc([N+](=O)[O-])cc2)cc1  Hut78 T-cell Leukemia cell              8.1

The compound listed as Nc1cnccc1NC(=O)c1ccc(CNC(=O)OCc2cccnc2)cc1 has a reported inhibition at 10 µM of 43.4

The compound listed as COc1ccc(/C=C/C(=O)NCc2ccc(C(=O)Nc3cccnc3N)cc2)cc1 has a reported inhibition at 10 µM of 45.2

The compound listed as Cc1ccc(/C=C/C(=O)NCc2ccc(C(=O)Nc3cccnc3N)cc2)cc1 has a reported inhibition at 10 µM of 43

###

- System: histone deacetylase
- Protocol details: in vitro inhibition of histone deacetylase by HDAC inhibitor screening kit (Biovision K340-100)
- Assay type: biochemical
- Condition: 3.91 μM
Assay metric: Inhibition rate(%)
Answer with a number only, understood to be in %.

> print(dat)
                                test.smiles  recorded.number
1  Nc1cnccc1NC(=O)c1ccc(CNC(=O)OCc2ccccc2)cc1              9.5

The molecule listed as Nc1cnccc1NC(=O)c1ccc(CNC(=O)/C=C/c2ccc([N+](=O)[O-])cc2)cc1 has a reported Inhibition rate(%) of 24.2

The molecule listed as Nc1cnccc1NC(=O)c1ccc(CNC(=O)OCc2cccnc2)cc1 has a reported Inhibition rate(%) of 7.6

The molecule listed as COc1cccc(/C=C/C(=O)NCc2ccc(C(=O)Nc3ccncc3N)cc2)c1 has a reported Inhibition rate(%) of 24.0

The molecule listed as COc1ccc(COC(=O)NCc2ccc(C(=O)Nc3ccncc3N)cc2)cc1OC has a reported Inhibition rate(%) of 14.0

The molecule listed as Nc1ncccc1NC(=O)c1ccc(CNC(=O)OCc2cccnc2)cc1 has a reported Inhibition rate(%) of 9.4

The molecule listed as COc1cccc(/C=C/C(=O)NCc2ccc(C(=O)Nc3cccnc3N)cc2)c1 has a reported Inhibition rate(%) of 10.1

The molecule listed as Nc1cnccc1NC(=O)c1ccc(CNC(=O)/C=C/c2ccccc2)cc1 has a reported Inhibition rate(%) of 24.8

The molecule listed as COc1cc(COC(=O)NCc2ccc(C(=O)Nc3cccnc3N)cc2)cc(OC)c1OC has a reported Inhibition rate(%) of 1.9

The molecule listed as Cc1ccc(COC(=O)NCc2ccc(C(=O)Nc3cccnc3N)cc2)cc1 has a reported Inhibition rate(%) of 2.8

###

Property: inhibition at 100 µM; scope: individual compounds
- Tested on: Colo320 human rectal cancer cells
- Protocol details: CCK-8 proliferation inhibition, Colo320
- Format: cell-based
- Condition: Homo sapiens, COLO 320; compound concentration 100 μM, CCK-8 method
Answer with a number only, understood to be in %.

Some entries whose results are on file:
> print(dat)
                                   compound          assay.metric  recorded.number
1  Nc1cnccc1NC(=O)c1ccc(CNC(=O)/C=C/c2cccnc2)cc1 [V-43]  inhibition at 100 µM             59.4
2  COc1cccc(COC(=O)NCc2ccc(C(=O)Nc3ccncc3N)cc2)c1 [V-95]  inhibition at 100 µM             68.8

The compound listed as Nc1ncccc1NC(=O)c1ccc(CNC(=O)CCc2ccc(F)cc2)cc1 [V-60] has a reported inhibition at 100 µM of 2.3

The compound listed as COc1cc(COC(=O)NCc2ccc(C(=O)Nc3ccncc3N)cc2)cc(OC)c1OC [V-14] has a reported inhibition at 100 µM of 23.3

The compound listed as COc1cc(/C=C/C(=O)NCc2ccc(C(=O)Nc3cccnc3N)cc2)cc(OC)c1OC [V-34] has a reported inhibition at 100 µM of 5.9
